The measured values listed here are drawn from PubChem BioAssay (NCI).

system: U251 CNS; experiment: NCI-60 one-dose screen, 48 h; settings: 10 µM unless noted
About 83,000 compounds went through this panel and 20% of them were active in at least one assay; those are over-represented in the sample as a whole. The source made the active and inactive calls. How the source made its calls: active means growth percent below 10; inactive means the rest.
Select the matching outcome among yes (active), no (inactive)

CN(C)CCCn1c2nc(=O)[nH]c(=O)c-2nc2cc(Cl)c(Cl)cc21	no
Cc1ccc(-c2nc3nc(-c4ccccc4)nc(N4CCN(S(=O)(=O)c5ccccc5)CC4)c3o2)cc1	no
Clc1ccc(Nc2nc(Nc3ccc(Cl)cc3)nc(Nc3ccc(-c4cc(-c5cccc(Cl)c5)on4)cc3)n2)cc1	no
COc1cc(F)c(/C=C/c2cc(/C=C/c3cc(OC)c(OC)cc3F)n(-c3cc(F)cc(F)c3)n2)cc1OC	yes
C=C1C(=O)O[C@@H]2[C@H]3[C@H](COC(C)=O)[C@@H](OC(C)=O)C[C@H]3C(=C)[C@@H](O)C[C@@H]12	no

State the result this test recorded for COC(=O)c1[nH]nc(OC)c1C1(C(C#N)c2nc3ccccc3s2)CCCc2ccccc21 (stereo not given) .
no

State the result this test recorded for N#C/C(=C\c1ccccc1Cl)c1cc2ccccc2[nH]1 .
no

State the result this test recorded for CN(C)CCCn1c2c(c3ccc(N4CCNCC4)cc3c1=O)C(=O)c1ccccc1-2 .
yes

###

Catalogue of growth values
system: OVCAR-5 ovarian; assay: NCI-60 one-dose screen, 48 h (100 = growth as untreated, 0 = no growth, -100 = all killed); conditions: 100 µM
About 83,000 compounds went through this panel and 20% of them were active in at least one assay; those are over-represented in the sample as a whole.
Write the answer as a number in %, unit excluded.

O=C(/C=C/c1cccc(Oc2ccc(Cl)cc2)c1)c1ccccc1	-82.2

Look up and report measured growth (OVCAR-5 ovarian) for the following compound: CC(=O)/C=C/c1ccc(OCc2ccc(C(C)(C)C)cc2)cc1
37.6

Look up and report measured growth (OVCAR-5 ovarian) for the following compound: CCN(Cc1ccccc1)c1ccc(/C=C2\COc3ccccc3C2=O)cc1
98.7

Look up and report measured growth (OVCAR-5 ovarian) for the following compound: COc1ccc(C(=O)/C=C/c2ccc(OCc3ccc(Cl)cc3)cc2)cc1OC
135

Look up and report measured growth (OVCAR-5 ovarian) for the following compound: COc1ccc(C(=O)/C=C/c2ccc(OCc3cccc(C(F)(F)F)c3)c(OC)c2)cc1OC
51.5

Look up and report measured growth (OVCAR-5 ovarian) for the following compound: CC(=O)/C=C/c1ccc(OCc2ccc(Cl)cc2)cc1
75

###

test system: CAKI-1 renal; assay: NCI-60 one-dose screen, 48 h (100 = growth as untreated, 0 = no growth, -100 = all killed); details: 10 µM unless noted
About 83,000 compounds went through this panel and 20% of them were active in at least one assay; those are over-represented in the sample as a whole.
Criterion: growth meeting or surpassing 80%. Met: 1 (yes). Not met: 0 (no).

# count of solved cases: 4
CN(Cc1ccccc1)c1nc(Cl)c(C2CC(c3ccc4c(c3)OCO4)=NN2c2cc(Cl)cc(Cl)c2)s1 (centres undefined)	1 (yes)
Cc1ccccc1SSc1ccccc1C	0 (no)
CCCN1C(=O)/C(=c2\sc3n(c2=O)C2C(NN=3)N(CC)C(=O)N2CC)c2ccccc21 (centres undefined)	0 (no)
[Cu+].[NH-][C@H]1C[N-]C(=O)[C@H]([C@H]2CCN=C(N)N2)[N-]C(=O)/C(=C\NC(N)=O)[N-]C(=O)[C@H](CNC(=O)C[C@@H](N)CCCN)[N-]C(=O)[C@H](CO)[N-]C1=O	1 (yes)

Check the entry N#Cc1c(N)nnn1Cc1cc(=O)oc2ccc(O)cc12 : does growth equal or exceed 80%?
1 (yes)

Check the entry COc1ccc(N2CCN(S(=O)(=O)c3oc(-c4ccccc4)nc3C#N)CC2)cc1 : does growth equal or exceed 80%?
1 (yes)

Check the entry COc1cc2c(cc1OCCCOC1=C=C=C(c3ccc4c(c3)c3cc(-c5ccc(OCCCOc6cc7c(cc6OC)C(=O)N6CCC[C@H]6C=N7)cc5)ccc3n4S(=O)(=O)c3ccc(C)cc3)C=C1)N=C[C@@H]1CCCN1C2=O : does growth equal or exceed 80%?
0 (no)

Check the entry Cc1cc(N2CCCCC2)nc(NCc2cc(Nc3ccnc4cc(Cl)ccc34)ccc2F)n1 : does growth equal or exceed 80%?
0 (no)

Check the entry Cc1ccc2[nH]c(=S)[nH]c(=O)c2c1 : does growth equal or exceed 80%?
1 (yes)
